method_description: Inhibition of HCV genotype 1a NS5A infected in HuH-7-Luc/Neo-ET cells assessed as reduction in viral replication measured by Luciferase reporter gene assay
property_name: log10 of EC50 (log10 of the value in nM)
The figures below represent log10 of EC50, where EC50 is stated in nM.

Examples from the recorded data:
# structure_as_smiles, log10 of EC50
data = [
    ("COC(=O)N[C@H]1CCC[C@@H]2CC[C@@H](c3ncc(-c4ccc(-c5ccc(-c6cnc([C@@H]7CCCN7C(=O)[C@@H](NC(=O)OC)C(C)C)[nH]6)cc5)cc4)[nH]3)N2C1=O", -0.33),
    ("COC(=O)N[C@H](C(=O)N1CC2(C[C@H]1c1ncc(-c3ccc(-c4ccc(-c5cnc([C@@H]6CC[C@H]7CCC[C@@H](NC(=O)OC)C(=O)N76)[nH]5)cc4)cc3)[nH]1)OCCO2)C(C)C", -0.15),
    ("COC(=O)N[C@H]1CCC[C@@H]2CC[C@@H](c3ncc(-c4ccc(-c5ccc(-c6cnc([C@@H]7CC8(CN7C(=O)[C@@H](NC(=O)OC)C(C)C)OCCO8)[nH]6)cc5)cc4)[nH]3)N2C1=O", 0.18),
    ("COC(=O)N[C@H]1CCC[C@H]2CC[C@@H](c3ncc(-c4ccc(-c5ccc(-c6cnc([C@@H]7CC8(CN7C(=O)[C@@H](NC(=O)OC)C(C)C)OCCO8)[nH]6)cc5)cc4)[nH]3)N2C1=O", 0.93),
]

Task item: Which log10 of EC50 value is on record for COC(=O)N[C@H]1CCC[C@H]2CC[C@@H](c3ncc(-c4ccc(-c5ccc(-c6cnc([C@@H]7CCCN7C(=O)[C@@H](NC(=O)OC)C(C)C)[nH]6)cc5)cc4)[nH]3)N2C1=O ?
Reply: 1.23

Task item: Would you kindly share the measured log10 of EC50 for COC(=O)N[C@H](C(=O)N1CCC[C@H]1c1ncc(-c2ccc(-c3ccc(-c4cnc([C@@H]5CC[C@@H]6CCC[C@@H](NC(=O)OC)C(=O)N65)[nH]4)cc3)cc2)[nH]1)C(C)C ?
Reply: 1.08

Task item: What value of log10 of EC50 has been reported for the following compound? COC(=O)N[C@H](C(=O)N1CC2(C[C@H]1c1ncc(-c3ccc(-c4ccc(-c5cnc([C@@H]6CC[C@@H]7CCC[C@@H](N(C)C)C(=O)N76)[nH]5)cc4)cc3)[nH]1)OCCO2)C(C)C
Reply: 2.08
